Hello, the source for this data is PubChem BioAssay AID1159580, in case you need it.

Kindly state normalized growth for each of the entries shown.
ASSAY METHOD TEXT: chemical genetic growth profiling, strain panel (AID 1159580);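 note: tested at 20 µM; growth read once vehicle control cultures reached saturation at 30 °C; 1 = growth at the plate median or of vehicle wells; lower values mean less growth of the strain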
PROTOCOL CONDITIONS: S. cerevisiae deletion strains, growth OD, locus YLR027C, strain aat2, active compounds read low
About 2,000 (36%) of roughly 5,500 compounds were called active. Not shown: some 18% with an inconclusive outcome. This is one part of the list.

State its normalized growth: NC(=O)CS(=O)C(c1ccccc1)c1ccccc1 (centres undefined)
0.985 (inactive)

State its normalized growth: COc1ccc(CCC(=O)c2c(O)cc(O[C@@H]3O[C@H](CO)C(O)[C@H](O)C3O[C@@H]3O[C@@H](C)[C@H](O)[C@@H](O)[C@H]3O)cc2O)cc1O (some centres undefined)
1 (inactive)

State its normalized growth: CC(=O)C1CC[C@H]2C3CC[C@H]4C[C@H](O)CC[C@]4(C)C3CC[C@]12C (some centres undefined)
0.983 (inactive)

State its normalized growth: `CN1CCC[C@@H]1CCO[C@](C)(c1ccccc1)c1ccc(Cl)cc1`
0.98 (inactive)

State its normalized growth: `CN(C/C=C/C#CC(C)(C)C)Cc1cccc2ccccc12`
0.225 (active)

State its normalized growth: NC(C(=O)O)C(O)C(=O)O (centres undefined)
0.998 (inactive)

State its normalized growth: NCC[C@@H](O)C(=O)N[C@@H]1C[C@H](N)[C@@H](O[C@H]2O[C@H](CN)[C@@H](O)[C@H](O)[C@H]2O)[C@H](O)[C@H]1O[C@H]1O[C@H](CO)[C@@H](O)[C@H](N)C1O (some centres undefined)
1.02 (inactive)

State its normalized growth: CC(C)/C(O)=C1/C(=O)O[C@@H](c2ccoc2)[C@]2(C)C(O)[C@@H](O)[C@@]34OC5(C)OC67CC(C)(C(O)[C@]6(O)[C@@H](O)[C@]3(O5)C12)[C@H](CC(=O)O)[C@]74C (some centres undefined)
0.999 (inactive)

State its normalized growth: CCCCC(=O)O[C@]1(C(=O)CO)CCC2C3CCC4=CC(=O)CC[C@]4(C)C3[C@@H](O)C[C@@]21C (some centres undefined)
0.978 (inactive)

State its normalized growth: `CC(=O)N[C@@H](CCC(=O)O)C(=O)O`
1.02 (inactive)

State its normalized growth: `Clc1ccc(CO/N=C(/Cn2ccnc2)c2ccc(Cl)cc2Cl)c(Cl)c1`
0.0637 (active)

State its normalized growth: Clc1ccc(C(c2ccccc2Cl)C(Cl)Cl)cc1 (centres undefined)
0.889 (active)

State its normalized growth: `CC(C)(S)[C@@H](N)C(=O)O`
0.995 (inactive)

State its normalized growth: CN[C@@H]1C(OC2[C@H](O[C@H]3[C@H](O)[C@@H](O)[C@H](N=C(N)N)[C@@H](O)[C@@H]3N=C(N)N)OC(C)[C@]2(O)CO)OC(CO)C(O)C1O (some centres undefined)
1 (inactive)

State its normalized growth: `NC1(C(=O)O)CC1`
1.02 (inactive)

State its normalized growth: `CN(C)C(=O)Oc1ccc[n+](C)c1`
0.999 (inactive)

State its normalized growth: C=CCS(=O)C[C@H](N)C(=O)O (some centres undefined)
1 (inactive)

State its normalized growth: CCCCCCCCCCCCCC(=O)OC1C(C)C2(O)C(C=C(CO)CC3(O)C(=O)C(C)=CC32)C2C(C)(C)C12OC(C)=O (centres undefined)
0.992 (inactive)

State its normalized growth: `CCCNC(=O)NS(=O)(=O)c1ccc(Cl)cc1`
1.01 (inactive)
